# targetEntity: Recombinant human HDAC2 (Homo sapiens, UniProt Q92769)
# Construct: Full length human HDAC2-FLAG was expressed in baculovirus infected Sf9 cells; FLAG (C); made in house; host or cells: Sf9 (baculovirus)
# Sequence (Q92769 whole entry): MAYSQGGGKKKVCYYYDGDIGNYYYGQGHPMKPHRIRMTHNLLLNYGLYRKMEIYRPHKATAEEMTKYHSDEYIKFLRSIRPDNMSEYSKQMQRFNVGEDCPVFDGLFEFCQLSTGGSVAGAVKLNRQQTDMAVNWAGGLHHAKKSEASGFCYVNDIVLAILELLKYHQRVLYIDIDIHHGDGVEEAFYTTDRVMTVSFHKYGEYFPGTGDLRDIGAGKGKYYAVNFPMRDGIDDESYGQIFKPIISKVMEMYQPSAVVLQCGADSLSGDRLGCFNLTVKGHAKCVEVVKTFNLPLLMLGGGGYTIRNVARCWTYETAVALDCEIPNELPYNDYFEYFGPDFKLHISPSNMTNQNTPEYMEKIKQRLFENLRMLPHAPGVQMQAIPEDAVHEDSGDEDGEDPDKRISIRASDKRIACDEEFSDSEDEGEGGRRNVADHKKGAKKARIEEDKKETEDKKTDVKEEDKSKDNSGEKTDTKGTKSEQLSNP
# test: Human HDAC enzyme inhibitor Fluor-de-Lys assay, HDAC2
# Assay type: biochemical
pIC50: −log10 of the molar value.
Output YES for pIC50 not less than 8; output NO otherwise.

Before answering, review these 4 worked examples.
Query: Is the recorded value of pIC50 equal to or greater than 8 for this compound? CCC(=O)CCCCC[C@H](NC(=O)[C@H]1CC12CCN(CC)CC2)c1ncc(-c2ccc3c(=O)n(C(C)C)ccc3c2)[nH]1
Response: YES

Query: Does the compound CCC(=O)CCCCC[C@H](NC(=O)[C@H]1CC12CCN(C)CC2)c1ncc(-c2ccc3nc(CC)sc3c2)[nH]1 have recorded pIC50 that is 8 or more?
Response: YES

Query: Check this compound for pIC50 at or above 8: CCC(=O)CCCCC[C@H](NC(=O)[C@H]1CC12CCN(CC)CC2)c1ncc(-c2ccc3nc(C4CC4)ccc3c2)o1
Response: YES

Query: Check this compound for pIC50 at or above 8: CCN1CCC2(CC1)C[C@@H]2C(=O)N[C@@H](CCCCCC(=O)CC1CCC1)c1ncc(-c2cc3ccc(C)nc3cc2OC)o1
Response: NO

Next:
Query: Hi team, for CCC(=O)CCCCC[C@H](NC(=O)C1CN(C)C1)c1ncc(-c2ccc3c(c2)C2CCC3C2)[nH]1 (stereo partly shown) , is the recorded pIC50 at or above 8?
Response: NO
